Origin of values: paper PMC3870792

# measured-on: GABAA receptor α2 subunit (α2β3γ2 GABAAR) (Rattus norvegicus, UniProt P18508+P23576)
# Sequence (P23576 29-451): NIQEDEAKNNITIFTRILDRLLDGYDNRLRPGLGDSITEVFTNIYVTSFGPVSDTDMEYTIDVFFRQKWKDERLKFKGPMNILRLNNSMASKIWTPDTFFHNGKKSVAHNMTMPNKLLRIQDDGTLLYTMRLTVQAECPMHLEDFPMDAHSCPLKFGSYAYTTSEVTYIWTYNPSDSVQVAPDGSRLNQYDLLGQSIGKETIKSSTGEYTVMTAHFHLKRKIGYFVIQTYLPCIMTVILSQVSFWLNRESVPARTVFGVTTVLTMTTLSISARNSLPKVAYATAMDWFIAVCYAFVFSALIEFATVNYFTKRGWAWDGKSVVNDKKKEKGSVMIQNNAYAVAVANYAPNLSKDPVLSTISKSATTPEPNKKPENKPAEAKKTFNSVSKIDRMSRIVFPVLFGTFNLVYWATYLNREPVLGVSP
# Sequence (P18508 39-466): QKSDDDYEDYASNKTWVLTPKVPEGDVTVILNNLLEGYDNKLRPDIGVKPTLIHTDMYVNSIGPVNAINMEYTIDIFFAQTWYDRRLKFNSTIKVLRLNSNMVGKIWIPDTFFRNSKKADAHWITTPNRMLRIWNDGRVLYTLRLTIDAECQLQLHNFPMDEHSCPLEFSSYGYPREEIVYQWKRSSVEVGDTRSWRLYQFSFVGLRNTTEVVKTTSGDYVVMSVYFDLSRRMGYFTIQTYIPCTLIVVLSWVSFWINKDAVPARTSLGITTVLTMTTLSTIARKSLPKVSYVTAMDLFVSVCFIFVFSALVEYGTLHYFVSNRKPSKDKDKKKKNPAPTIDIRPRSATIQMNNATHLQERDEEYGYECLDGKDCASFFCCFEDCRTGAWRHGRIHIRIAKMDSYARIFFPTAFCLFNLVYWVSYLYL
# Sequence (P63079 26-473 partner): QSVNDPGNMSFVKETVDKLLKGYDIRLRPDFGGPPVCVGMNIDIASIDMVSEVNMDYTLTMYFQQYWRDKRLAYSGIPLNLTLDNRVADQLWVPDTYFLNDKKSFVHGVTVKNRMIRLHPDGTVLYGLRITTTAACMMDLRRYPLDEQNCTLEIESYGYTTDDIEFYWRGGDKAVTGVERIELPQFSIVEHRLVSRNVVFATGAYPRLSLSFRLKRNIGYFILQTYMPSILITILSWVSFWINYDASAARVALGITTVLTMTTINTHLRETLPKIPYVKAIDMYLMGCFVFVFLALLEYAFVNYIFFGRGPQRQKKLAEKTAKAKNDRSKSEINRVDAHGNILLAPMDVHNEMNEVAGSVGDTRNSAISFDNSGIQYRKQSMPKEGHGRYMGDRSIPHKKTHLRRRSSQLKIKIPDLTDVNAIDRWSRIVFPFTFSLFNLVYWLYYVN
# method: [3H]Ro […]-4513 displacement on HEK293 membranes
attribute-measured: pKi
Answers are plain numbers, as −log10 of the molar value.

Task: Reported pKi for C#Cc1ccc2c(c1)C(c1ccccn1)=NCc1c(C(=O)OCC)ncn1-2 : what is it?
Output: 6.66
